target: H7 A/Anhui/1-BALF_RG17/2013 HA on H7N9 AH/13 pseudo virus (influenza A virus A/Anhui/1-BALF_RG17/2013 (H7N9)); experiment: cell-based or functional assay
Below: a set of entries, each annotated with reported IC50 of pseudo virus neutralization H7N9 AH/13.
EXPERIMENTAL ENDPOINT: IC50 of pseudo virus neutralization H7N9 AH/13

BINDER: P03 (antibody, V domains shown) VH: EVQLVESGGGLVQPGGSLRLSCAASGFTIDSFGIHWVRQAPGKGLEWVAFIGPFGGSTFYADSVKGRFTISADTSKNTAYLQMNSLRAEDTAVYYCARFDSNSYSYHGIMDYWGQGTLVTVSS VL: DIQMTQSPSSLSASVGDRVTITCRASQDVWGYVAWYQQKPGKAPKLLISWSGSLYSGVPSRFSGSGSGTDFTLTISSLQPEDFATYYCQQYYNWPVTFGQGTKVEIKR
REPORTED VALUE: > 200 µg/mL
//
BINDER: P25 (antibody, V domains shown) VH: EVQLVESGGGLVQPGGSLRLSCAASGFTISNGGIHWVRQAPGKGLEWVAGIGPYGGYTYYADSVKGRFTISADTSKNTAYLQTNSLRAEDTAVYYCARFYGYSGIMDYWGQGTLVTVSS VL: DIQMTQSPSSLSASVGDRVTITCRASQDVWGYVAWYQQKPGKAPKLLISGSRSLYSGVPSRFSGSGSGTDFTLTISSLQPEDFATYYCQQYYNYPITFGQGTKVEIKR
REPORTED VALUE: > 200 µg/mL
//
BINDER: S01 (antibody, V domains shown) VH: EVQLVESGGGLVQPGGSLRLSCAASGFTINNYGIHWVRQAPGKGLEWVASIWPSGGYTSYADSVKGRFTISADTSKNTAYLQMNSLRAEDTAVYYCARFGLGDYDIMDYWGQGTLVTVSS VL: DIQMTQSPSSLSASVGDRVTITCRASQDVWGYVAWYQQKPGKAPKLLISFPSSLYSGVPSRFSGSGSGTDFTLTISSLQPEDFATYYCQQYYDGPVTFGQGTKVEIKR
REPORTED VALUE: > 200 µg/mL

Provenance of the data: patent US20210070843A1
